Where do the numbers come from? From paper PMC3973318.

- target.entity: T1, ΔN-DRH3 (Caenorhabditis elegans, UniProt Q93413 300-1119)
- T1 sequence: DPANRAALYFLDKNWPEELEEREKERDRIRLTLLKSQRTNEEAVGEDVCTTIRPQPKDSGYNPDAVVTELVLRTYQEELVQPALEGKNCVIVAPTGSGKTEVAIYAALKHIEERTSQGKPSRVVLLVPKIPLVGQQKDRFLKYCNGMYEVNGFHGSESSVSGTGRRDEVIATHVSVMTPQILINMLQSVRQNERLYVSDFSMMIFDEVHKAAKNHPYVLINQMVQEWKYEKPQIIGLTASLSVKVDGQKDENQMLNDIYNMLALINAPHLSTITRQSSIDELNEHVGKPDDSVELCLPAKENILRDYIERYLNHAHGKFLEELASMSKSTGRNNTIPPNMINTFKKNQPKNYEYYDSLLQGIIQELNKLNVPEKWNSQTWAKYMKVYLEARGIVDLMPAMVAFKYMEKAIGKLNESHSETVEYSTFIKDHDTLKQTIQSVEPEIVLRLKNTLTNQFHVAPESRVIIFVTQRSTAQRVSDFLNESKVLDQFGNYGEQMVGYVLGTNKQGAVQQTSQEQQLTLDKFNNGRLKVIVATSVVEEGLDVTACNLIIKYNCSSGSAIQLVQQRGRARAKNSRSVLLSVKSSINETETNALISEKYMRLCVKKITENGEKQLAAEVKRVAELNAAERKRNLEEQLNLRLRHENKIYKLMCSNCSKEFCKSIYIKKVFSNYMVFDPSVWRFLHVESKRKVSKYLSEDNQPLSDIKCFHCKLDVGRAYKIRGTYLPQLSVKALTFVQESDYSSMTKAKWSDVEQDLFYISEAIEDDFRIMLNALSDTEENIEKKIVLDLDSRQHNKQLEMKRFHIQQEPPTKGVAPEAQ
- method.notes: EMSA
measure.name: Kd (nM)
Hi! Could you send only the number? It should be in nM, unit omitted.

Exercise: Entry ds25 (dsRNA) RNA 1: GGGUAUAGACUGACUAGGAUCUCCC RNA 2: GGGAGAUCCUAGUCAGUCUAUACCC : reported Kd = ?
Solution: 376
